Test system: BT-549 breast
Experiment: NCI-60 one-dose screen, 48 h (100 = growth as untreated, 0 = no growth, -100 = all killed)
Conditions: 10 µM unless noted
About 83,000 compounds went through this panel and 20% of them were active in at least one assay; those are over-represented in the sample as a whole.
readout: growth (%)
// units = %; emit number, no label

Worked cases, growth given:
structure_as_smiles	growth (%)
COc1ccc(-c2cn[nH]c2-c2cc(OC)c3c(c2)OCCO3)cc1	53.3
C=C1C(=O)O[C@H]2[C@H]1CC/C(Cn1cc(-c3ccc(N)cc3)nn1)=C\CC[C@@]1(C)O[C@@H]21	-43.3
COc1ccc(NC(=O)c2cc3ccccc3nc2Nc2cc(OC)c(OC)c(OC)c2)cc1	52.8
Cc1ccc(C(=O)c2sc3nc4c(cc3c2N)CCCC4)c(C)c1	55.8
CC(=O)Oc1cccc(OC(C)=O)c1OC(C)=O	94.3

Req: Consider the compound shown here: COc1cc(C(=O)OCCCCCCCCCCC[P+](c2ccccc2)(c2ccccc2)c2ccccc2)ccc1O What is its recorded growth?
Resp: -60.8

Req: Consider the compound shown here: CCN1C(=O)N[C@H]2[C@@H]3NC(=O)c4ccc(Cl)n4[C@@H]3C[C@]21O What is its recorded growth?
Resp: -23.4

Req: Consider the compound shown here: C=C1C(=O)O[C@H]2[C@H]1CC/C(Cn1cc(-c3ccsc3)nn1)=C\CC[C@@]1(C)O[C@@H]21 What is its recorded growth?
Resp: -56.3

Req: Consider the compound shown here: CC(C)C[C@H](NC(=O)Cn1ccc(NCc2ccccc2)cc1=O)B(O)O What is its recorded growth?
Resp: 3.58

Req: Consider the compound shown here: O=S(=O)(NCCCNc1cc(-c2cn(-c3ccccc3)nc2-c2cccc(O)c2)ccn1)c1ccc(Cl)cc1 What is its recorded growth?
Resp: 11.7

---

Tested on: SF-295 CNS
Experiment: NCI-60 one-dose screen, 48 h
Conditions: 10 µM unless noted
Compounds without any hit were thinned out: in the full panel of roughly 83,000, 20% have a hit. Calls of active or inactive are those of the source. The calls were made as follows: active = growth percent below 10; inactive = the rest.
Give one outcome, nothing more. List: class 1 = active, class 0 = inactive

structure_as_smiles	qualitative_label
CCCCCCCCCCC/C=C\C[C@H](O)C/C=C1/C(=O)C=C[C@@H]1C/C=C\CCCC(=O)OC	class 1
COc1cc(Cn2c(SCCC(=O)Nc3ccc(F)cc3)nc3ccccc3c2=O)cc(OC)c1OC	class 0

Req: Could you kindly confirm the outcome this assay logged for COc1ccc(/C=C/c2nc(N3CCOCC3)c3cc(F)c(F)cc3n2)cc1OC ?
Resp: class 0

Req: Could you kindly confirm the outcome this assay logged for O=C(CNC1CCCCC1)Nc1ccc(-c2nc3ccccc3s2)cc1 ?
Resp: class 0

Req: Could you kindly confirm the outcome this assay logged for Cc1ccc(Cn2c(-c3cccs3)nc3ccccc32)cc1 ?
Resp: class 0

---

System: SNB-75 CNS
Assay: NCI-60 one-dose screen, 48 h (100 = growth as untreated, 0 = no growth, -100 = all killed)
Conditions: 10 µM unless noted
The panel holds about 83,000 compounds, 20% with a hit somewhere; the sample as a whole holds those more often. Calls of active or inactive are those of the source. How the source made its calls: active means growth percent below 10; inactive means the rest.
growth values by entry

Worked cases, growth given:
molecule	meas_value
CCNC(=O)C1CCCN1C(=O)C(CCCN=C(N)N)NC(=O)C(CC(C)C)NC(=O)C(CC(C)C)NC(=O)C(Cc1ccc(O)cc1)NC(=O)C(CO)NC(=O)C(Cc1c[nH]c2ccccc12)NC(=O)C(Cc1cnc[nH]1)NC(=O)C1CCC(=O)N1 (stereo not given)	90.3% (inactive)
COc1ccc(/C=C\c2cc(OC)c(OC)c(OC)c2)c(NS(=O)(=O)c2ccc(C(C)(C)C)cc2)c1O	31.9% (inactive)
COc1c(NC[C@H]2OC(O)[C@H](O)[C@@H](O)[C@@H]2O)c(=O)c1=O (stereo not given in full)	70.9% (inactive)
NC(C(=O)O)C(O)c1ccc(OCc2ccccc2)c(OCc2ccccc2)c1 (stereo not given)	77.6% (inactive)

Let us move to another entry and its growth.
Req: Consider the molecule shown here: CNC(=O)Cc1nc(-c2cccc(NS(=O)(=O)c3c(F)cccc3F)c2F)c(-c2ccnc(Nc3ccccc3)n2)s1 What is its recorded growth?
Resp: 58.2% (inactive)
